B1: HDV Ribozyme (parent)
chain: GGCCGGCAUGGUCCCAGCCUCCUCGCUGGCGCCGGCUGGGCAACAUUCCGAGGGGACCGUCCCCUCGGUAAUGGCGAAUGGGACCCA

# Variants of: B1
# assay protocol: self-cleavage, relative activity (ratio to wild type); higher = more cleavage; co-transcriptional
reported metric: self-cleavage

A8G G68C
1.06

# return self-cleavage for each item in the list
1. G6C U27A
2. U46C C63U
3. C24U G40U

OUT:
[0.332, 0.671, 0.337]
